Molecular target: T1, human corticotrophin releasing hormone receptor type 2 (CRHR2) (human, UniProt Q13324 1-411)
T1 sequence (looked up): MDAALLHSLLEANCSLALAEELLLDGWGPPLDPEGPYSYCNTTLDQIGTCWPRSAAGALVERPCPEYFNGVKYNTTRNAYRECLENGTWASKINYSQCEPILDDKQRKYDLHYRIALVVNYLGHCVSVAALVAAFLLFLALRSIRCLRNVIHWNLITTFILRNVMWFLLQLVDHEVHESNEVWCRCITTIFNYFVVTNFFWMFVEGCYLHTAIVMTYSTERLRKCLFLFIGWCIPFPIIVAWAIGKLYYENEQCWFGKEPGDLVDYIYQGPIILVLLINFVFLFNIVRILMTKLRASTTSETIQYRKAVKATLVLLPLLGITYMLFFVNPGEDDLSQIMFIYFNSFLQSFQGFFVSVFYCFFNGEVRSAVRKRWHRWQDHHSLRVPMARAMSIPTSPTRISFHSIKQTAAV
Assay: cell-based or functional assay
Where no end group is shown, it is not given here.
PROPERTY_LABEL: Log DR (log10)
Write it as a number; the unit log10 goes unstated.

BINDER	Log DR (log10)
TKFTLSLDVPTNIMNLLFNICKAKNLRAQAAANAHLMAQI (NES-PEG (about 20 kDa) on Cys 21; C-terminal amide (-NH2)) [Pegylated Cys-variant stresscopin-like peptide with NES linker and PEG about 20 kDa SEQ ID NO: 75]	1.3

We next turn to a different binder, shown below.
Query: Retrieve Log DR measured for TKFTLSLDVPTNIMNLLFNIAKAKNLRAQCAANAHLMAQI-NH2 [Cys-variant stresscopin-like peptide SEQ ID NO: 31] and print it.
Reply: 1.61
